test system: P12-Ichikawa; assay: cell viability relative to DMSO control; higher = less cytotoxic; conditions: RPMI 5 mM glucose + 10% dialyzed FBS; 48 h; 0.00702 µM
Collected cell viability values appear next to each entry.
TEST READOUT: cell viability (%)

[
  {
    "QUERY SMILES": "O=C1\\C=C/C[C@@H]2[C@H]3CCCN4CCC[C@@H](CN12)[C@@H]34",
    "TEST READOUT": "cell viability",
    "VALUE OBSERVED": 97.8
  },
  {
    "QUERY SMILES": "CC(C)n1nc(-c2ccc3oc(N)nc3c2)c2c(N)ncnc21",
    "TEST READOUT": "cell viability",
    "VALUE OBSERVED": 67.1
  },
  {
    "QUERY SMILES": "CC(C)[C@@H](C[S+](=O)([O-])C(C)C)N1C(=O)[C@@](C)(CC(=O)O)C[C@H](c2cccc(Cl)c2)[C@H]1c1ccc(Cl)cc1",
    "TEST READOUT": "cell viability",
    "VALUE OBSERVED": 120
  }
]

src = the supplement of paper PMC11451515
